Attribution: patent US20240158348A1

I'd appreciate it if you could supply Plant response rating (0 to 100 scale), Ragweed values for the items below.
tested on: ragweed (common ragweed, Ambrosia artemisiifolia); test: Test C preemergence, ragweed; format: in vivo; conditions: 125 g ai/ha Preemergence; 0 is no effect, 100 is complete control
Description: […]
Answer field: number only, no words.

The molecule Cc1c(NS(=O)(=O)C(F)(F)F)cc(N2CCC(OC3CCC3)C2=O)c(C)c1C (stereo not shown) [Compound 45] showed Plant response rating (0 to 100 scale), Ragweed equal to 100

Plant response rating (0 to 100 scale), Ragweed recorded for this molecule, Cc1cc(C)c(N2CCC(OCC3CCC3(F)F)C2=O)cc1NS(=O)(=O)C(F)(F)F (stereo not shown) [Compound 52] , is 30

Plant response rating (0 to 100 scale), Ragweed reading for CO/N=C1\CCN(c2cc(NS(=O)(=O)C(F)(F)F)c(C)cc2C)C1=O [Compound 9] : 90

The value of Plant response rating (0 to 100 scale), Ragweed measured for the molecule Cc1c(N2CCC(OC3CC3)C2=O)cc(N(COC(=O)C(C)(C)C)S(=O)(=O)C(F)(F)F)c(C)c1F (stereo not shown) [Compound 23] turned out to be 90

Looking up Cc1c(N2CCC(OC3CC3)C2=O)cc(N(C(=O)OCC(C)C)S(=O)(=O)C(F)(F)F)c(C)c1C (stereo not shown) [Compound 50] , I see its Plant response rating (0 to 100 scale), Ragweed listed as 90

The molecule listed as Cc1cc(C)c(N2CCC(OCC3CC3)C2=O)cc1NS(=O)(=O)C(F)(F)F (stereo not shown) [Compound 22] shows Plant response rating (0 to 100 scale), Ragweed equal to 100

Just so you know, measured Plant response rating (0 to 100 scale), Ragweed for Cc1c(NS(=O)(=O)C(F)(F)F)cc(N2CCCC(OC3CC3)C2=O)c(C)c1F (stereo not shown) [Compound 35] came out at 90

Measured Plant response rating (0 to 100 scale), Ragweed of Cc1cc(Cl)c(N(COC(=O)C(C)(C)C)S(=O)(=O)C(F)(F)F)cc1N1CCC(OC2CC2)C1=O (stereo not shown) [Compound 33] : 80

Value of Plant response rating (0 to 100 scale), Ragweed reported for the molecule Cc1cc(C)c(N2CCC(OCC3CCCC3)C2=O)cc1NS(=O)(=O)C(F)(F)F (stereo not shown) [Compound 57] is 80

Query Cc1c(NS(=O)(=O)C(F)(F)F)cc(N2CCC(OC3CCC3)C2=O)c(C)c1F (stereo not shown) [Compound 25] yields Plant response rating (0 to 100 scale), Ragweed of 100

Record Cc1cc(C)c(N2CCC(OCC3CCC3)C2=O)cc1NS(=O)(=O)C(F)(F)F (stereo not shown) [Compound 43] . Reported Plant response rating (0 to 100 scale), Ragweed: 60

Per the record, CC(=O)N(c1cc(N2CCC(OC3CC3)C2=O)c(C)cc1Cl)S(=O)(=O)C(F)(F)F (stereo not shown) [Compound 38] has Plant response rating (0 to 100 scale), Ragweed of 90

Notebook: Cc1cc(C)c(N(C(=O)OCC(C)C)S(=O)(=O)C(F)(F)F)cc1N1CCC(OC2CC2)C1=O (stereo not shown) [Compound 21] , Plant response rating (0 to 100 scale), Ragweed read as 80

Noted for CC(=O)N(c1cc(N2CCC(OC3CC3)C2=O)c(C)cc1C)S(=O)(=O)C(F)(F)F (stereo not shown) [Compound 17] : its Plant response rating (0 to 100 scale), Ragweed reads 90

Reported Plant response rating (0 to 100 scale), Ragweed of Cc1c(NS(=O)(=O)C(F)(F)F)cc(N2CCC(OCC3CC3)C2=O)c(C)c1F (stereo not shown) [Compound 63] : 100

Recorded Plant response rating (0 to 100 scale), Ragweed (molecule C=CCO/N=C1\CCN(c2cc(NS(=O)(=O)C(F)(F)F)c(C)cc2C)C1=O [Compound 11] ): 90
